Origin of values: patent US20130085133A1

Listing of recorded log reduction at 25 µg/mL by entry.
# Test system: RSV, Long strain
# measurement_notes: virus titer Reduction (VTR) assay, progeny virus TCID50 in HEp-2 cells
# Assay type: cell-based, respiratory syncytial virus (RSV)
# condition_context: human respiratory syncytial virus, 48 h, 25 ug/ml compound, read-out: TCID-50 Reduction 25 @ ug/ml

- compound: "COCc1cc(C)nc(SCC(=O)Nc2ccccc2C(=O)c2ccccc2)c1C#N"
  log reduction at 25 µg/mL: 2.23
- compound: "O=C(Nc1ccc(Nc2ccccc2)cc1)c1ccccc1Cl"
  log reduction at 25 µg/mL: 2.96
- compound: "CC(=O)N(CCCCN1C(=O)c2ccccc2C1=O)c1ccc(C)cc1"
  log reduction at 25 µg/mL: 2.56
- compound: "COCc1cc(C)nc(SCC(=O)Nc2ccccc2N2CCOCC2)c1C#N"
  log reduction at 25 µg/mL: 2.86
- compound: "CCCn1cnc2sc(-c3ccccc3)cc2c1=O"
  log reduction at 25 µg/mL: 3.78
- compound: "COC(=O)C1=C(C)N(Cc2ccccc2)C(=O)NC1c1ccc(OC)c(OC)c1 (stereo not drawn)"
  log reduction at 25 µg/mL: 5.9

---

# System: RSV, Long strain
# measurement_notes: virus titer Reduction (VTR) assay, progeny virus TCID50 in HEp-2 cells
# Assay type: cell-based, respiratory syncytial virus (RSV)
# condition_context: human respiratory syncytial virus, 48 h, 25 ug/ml compound, read-out: TCID-50 Reduction 25 @ ug/ml
Listing of recorded log reduction at 25 µg/mL by entry.

- mol: "COc1ccccc1CCNC(=O)c1cc2c(s1)CCCC2"
  log reduction at 25 µg/mL: 6.4
- mol: "O=C(c1cc(Cl)ccc1Cl)N1CCCN(C(=O)c2cc(Cl)ccc2Cl)CC1"
  log reduction at 25 µg/mL: 5.9
- mol: "CCOC(=O)C1=C(C)NC(C)=C(C(=O)OCC)C1c1ccc(C#N)cc1"
  log reduction at 25 µg/mL: 2.89
- mol: "CCCn1c(COc2ccccc2OC)nc2ccccc21"
  log reduction at 25 µg/mL: 5.9
- mol: "O=C(Nc1ccccc1)N1CCc2cc([N+](=O)[O-])ccc21"
  log reduction at 25 µg/mL: 5.56
- mol: "CC1=Nc2ccc(C)c3nc(C)cc(c23)N1c1ccc(C)cc1"
  log reduction at 25 µg/mL: 2.89
- mol: "Cc1ccn2cc(-c3cccc(NS(=O)(=O)c4ccccc4)c3)nc2c1"
  log reduction at 25 µg/mL: 3.78
- mol: "O=C1c2ccccc2C(=O)N1CCCCN(C(=O)c1ccco1)c1ccc(Cl)cc1"
  log reduction at 25 µg/mL: 3.07
- mol: "O=C(Cc1ccc(Br)cc1)Nc1ccccc1C(=O)O"
  log reduction at 25 µg/mL: 6.57
- mol: "O=C(Cc1cccs1)Nc1nc2c(s1)CCCC2"
  log reduction at 25 µg/mL: 6.4

---

Listing of recorded CC50 at 6 days by entry.
# measurement_notes: cytotoxicity assay (percent viability of HEp-2 cells, Cell Titer-Glo)
# condition_context: human, HEp-2 cells

- compound: "CCOC(=O)Cc1nnc(Nc2ccc(C)cc2)c2ccccc12"
  CC50 at 6 days: "> 25 µg/mL"
- compound: "COC(=O)C1=C(C)N(Cc2ccccc2)C(=O)NC1c1ccc(C(=O)OC)cc1 (stereo not drawn)"
  CC50 at 6 days: "> 25 µg/mL"
- compound: "CC1=Nc2ccc(C)c3nc(C)cc(c23)N1c1ccc(C)cc1"
  CC50 at 6 days: "> 25 µg/mL"
- compound: "O=C(Nc1ccc(Nc2ccccc2)cc1)c1ccccc1Cl"
  CC50 at 6 days: "> 25 µg/mL"
- compound: "COCc1cc(C)nc(SCC(=O)Nc2ccccc2C(=O)c2ccccc2)c1C#N"
  CC50 at 6 days: "> 25 µg/mL"
- compound: "Nc1c(N=Nc2ccc(-c3ccc(N=Nc4cc(S(=O)(=O)O)c5ccccc5c4N)cc3)cc2)cc(S(=O)(=O)O)c2ccccc12"
  CC50 at 6 days: "> 50 µM"
- compound: "Cc1ccc(S(=O)(=O)Nc2ccc(NC(=O)c3c(F)c(F)c(F)c(F)c3F)cc2)cc1"
  CC50 at 6 days: "> 25 µg/mL"
- compound: "CCOc1cc(C2CC(=O)Nc3c2ccc2ccccc32)cc(Cl)c1O (stereo not drawn)"
  CC50 at 6 days: "> 25 µg/mL"
- compound: "O=C(O)c1ccc(NC(=S)NC(=O)c2ccc(-c3ccc(Br)cc3)o2)cc1"
  CC50 at 6 days: "> 25 µg/mL"
- compound: "CCOC(=O)c1ccc(NC(=O)NC(C)C2CCCO2)cc1 (stereo not drawn)"
  CC50 at 6 days: "> 25 µg/mL"
- compound: "COC(=O)c1c(-c2ccc(C)c(C)c2)csc1NC(=O)CCCC(=O)O"
  CC50 at 6 days: "> 25 µg/mL"
- compound: "O=C(Nc1ccc(F)c(Cl)c1)C1CCN(C(=O)c2ccc(Cl)cc2)CC1"
  CC50 at 6 days: "> 25 µg/mL"
- compound: "CC(Oc1ccc(-c2ccccc2)cc1)C(=O)Nc1nnc(C2CCCO2)s1 (stereo not drawn)"
  CC50 at 6 days: "> 25 µg/mL"
- compound: "Cn1cnnc1SCC(=O)N1c2ccccc2Sc2ccc(C(F)(F)F)cc21"
  CC50 at 6 days: "> 25 µg/mL"
- compound: "CCc1c(C)sc(NC(=O)c2ccc(C)o2)c1C(N)=O"
  CC50 at 6 days: "> 25 µg/mL"
- compound: "O=C1c2ccccc2C(=O)N1CCCCN(C(=O)c1cccc([N+](=O)[O-])c1)c1ccc(Cl)cc1"
  CC50 at 6 days: "> 25 µg/mL"
- compound: "O=C(Nc1ccc(Nc2ccccc2)cc1)c1ccccc1F"
  CC50 at 6 days: "> 25 µg/mL"
- compound: "Cc1cccc(NC(=O)COC(=O)c2ccc(F)cc2N)c1C"
  CC50 at 6 days: "> 50 µM"
- compound: "O=C(COc1ccc(Cl)c(Cl)c1)Nc1cccc(C(=O)NC2CC2)c1"
  CC50 at 6 days: "> 50 µM"
- compound: "Cc1ccc2c(Cn3cnc4scc(-c5ccc(Br)cc5)c4c3=O)cc(=O)oc2c1"
  CC50 at 6 days: "> 50 µM"
- compound: "COC(=O)c1sc2cc(NC(=S)NCCCN3CCCC3=O)ccc2c1Cl"
  CC50 at 6 days: "> 25 µg/mL"
- compound: "COc1ccccc1OCC(=O)Nc1ccc(Br)cc1C(=O)O"
  CC50 at 6 days: "> 25 µg/mL"
- compound: "COc1ccccc1CCNC(=O)c1cc2c(s1)CCCC2"
  CC50 at 6 days: "> 25 µg/mL"
- compound: "Cc1ccc(-c2csc3nc[nH]c(=O)c23)cc1C"
  CC50 at 6 days: "> 25 µg/mL"
- compound: "N#CCCCCN1c2cccc3cccc(c23)S1(=O)=O"
  CC50 at 6 days: "> 25 µg/mL"
- compound: "CNC(=O)Nc1ccccc1C(=O)Nc1ccc(C)cc1"
  CC50 at 6 days: "> 25 µg/mL"
- compound: "Cc1cccc(NCc2cc(Cl)ccc2O)n1"
  CC50 at 6 days: "> 25 µg/mL"
- compound: "COc1cc(SC)ccc1C(=O)Nc1ccc(C(=O)NC2CC2)cc1"
  CC50 at 6 days: "> 50 µM"
- compound: "COC(=O)Nc1ccc2ccccc2c1"
  CC50 at 6 days: "> 25 µg/mL"
- compound: "O=C(Nc1cccc(Br)c1)C1CCN(C(=O)c2ccc([N+](=O)[O-])cc2)CC1"
  CC50 at 6 days: "> 25 µg/mL"
- compound: "NC(=O)c1c(NC(=O)Nc2cccc(Cl)c2)sc2c1CCCC2"
  CC50 at 6 days: "> 25 µg/mL"
- compound: "CCOc1ccccc1/C=C(\\C#N)c1nc2sc3c(c2c(=O)[nH]1)CCCC3"
  CC50 at 6 days: "> 50 µM"
- compound: "CCOC(=O)c1ccccc1NC(=O)c1cc(S(=O)(=O)N(CC)c2ccccc2)ccc1Cl"
  CC50 at 6 days: "> 50 µM"
